# TARGET OR TEST SYSTEM: T1, Claudin 18.2 (CLDN18.2), expressed on CHOS-CLDN 18.2 / HEK293-CLDN 18.2 / HCC827-CLDN 18.2 cells (human, UniProt P56856-2 1-261)
# T1 construct: whole, on cells; The species is not repeated for the CHOS-CLDN 18.2 cells; also called claudin-18A2
# ASSAY PROTOCOL: FACS, CHOS-CLDN18.2 cells, 0.078 µg/ml
RECORDED METRIC: FACS reading
Could you keep your reply to the number by itself?

Suppose we examine the binder QP14641460 (antibody, human IgG1, kappa, V domains shown, Humanized from QP207208) VH: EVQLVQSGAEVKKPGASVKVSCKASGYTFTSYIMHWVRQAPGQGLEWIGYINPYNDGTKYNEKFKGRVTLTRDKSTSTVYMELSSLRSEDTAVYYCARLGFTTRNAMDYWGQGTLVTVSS VL: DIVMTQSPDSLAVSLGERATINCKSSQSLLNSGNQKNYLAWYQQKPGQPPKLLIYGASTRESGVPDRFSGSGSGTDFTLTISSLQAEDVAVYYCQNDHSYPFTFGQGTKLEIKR ; what FACS reading value has been reported?
44300
